Data provenance: the supplement of paper PMC10567573

B1: SNX8 (parent)
chain: LHQETQLIHVYLPLTSHILRAFVN

- Variants of: B1
- method_notes: protein stability index of a GFP-peptide fusion (GPS, HEK-293T) (PSI 1-6); higher = more stable;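 further: lentivirally expressed fusions sorted by FACS into six bins by GFP to DsRed ratio, PSI derived from sequencing read proportions per bin multiplied by bin number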
- condition_notes: c terminus: a fixed tail appended
Use condition met when the recorded protein stability index is no lower than 2; use condition not met when it is lower.

Asked: Is protein stability index for E4Q at or above 2?
Given back: condition met

Asked: Is protein stability index for L14D at or above 2?
Given back: condition met

Asked: Is protein stability index for Y11G at or above 2?
Given back: condition met

Asked: Is protein stability index for L12N at or above 2?
Given back: condition met

Asked: Is protein stability index for V10T at or above 2?
Given back: condition not met

Asked: Is protein stability index for L1P at or above 2?
Given back: condition met

Asked: Is protein stability index for L19H at or above 2?
Given back: condition met

Asked: Is protein stability index for V23E at or above 2?
Given back: condition met

Asked: Is protein stability index for V23M at or above 2?
Given back: condition met

Asked: Is protein stability index for L7S at or above 2?
Given back: condition met

Asked: Is protein stability index for I18P at or above 2?
Given back: condition met

Asked: Is protein stability index for L7Y at or above 2?
Given back: condition not met

Asked: Is protein stability index for V10S at or above 2?
Given back: condition met

Asked: Is protein stability index for I8C at or above 2?
Given back: condition met

Asked: Is protein stability index for L14Y at or above 2?
Given back: condition not met

Asked: Is protein stability index for P13I at or above 2?
Given back: condition not met

Asked: Is protein stability index for V23D at or above 2?
Given back: condition met
